studyTarget: hCPT2 (Homo sapiens, UniProt P23786)
Sequence (P23786 26-658): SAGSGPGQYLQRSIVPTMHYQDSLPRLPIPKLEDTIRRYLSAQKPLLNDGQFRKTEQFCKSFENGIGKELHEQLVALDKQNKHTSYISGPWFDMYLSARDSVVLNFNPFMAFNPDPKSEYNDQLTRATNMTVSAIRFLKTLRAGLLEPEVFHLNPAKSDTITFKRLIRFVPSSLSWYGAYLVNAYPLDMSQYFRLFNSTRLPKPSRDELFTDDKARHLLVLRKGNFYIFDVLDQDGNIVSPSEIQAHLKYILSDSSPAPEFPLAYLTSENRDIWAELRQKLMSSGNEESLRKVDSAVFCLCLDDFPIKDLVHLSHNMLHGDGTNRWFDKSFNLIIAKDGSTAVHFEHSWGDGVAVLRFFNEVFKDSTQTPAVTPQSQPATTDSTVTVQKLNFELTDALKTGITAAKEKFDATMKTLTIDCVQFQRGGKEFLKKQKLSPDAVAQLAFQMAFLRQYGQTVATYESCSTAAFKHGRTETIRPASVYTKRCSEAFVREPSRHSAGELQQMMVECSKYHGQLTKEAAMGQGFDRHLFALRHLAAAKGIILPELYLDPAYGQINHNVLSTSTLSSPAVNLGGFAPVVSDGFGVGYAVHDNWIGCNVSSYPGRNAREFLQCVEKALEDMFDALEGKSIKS
experiment: hCPT2 inhibition (spectrophotometric DTNB CPT activity assay)
conditionDescription: human CPT2 expressed in P. pastoris, cell extract; carnitine 500 μM, palmitoyl-CoA 80 μM, DTNB 300 μM
measurementType: IC50 (µM)
Kindly provide the numeric value in µM only, without the unit symbol.

Example compounds with recorded IC50:
molecule | IC50 [µM]
C[N+](C)(C)C[C@@H](CC(=O)[O-])NC(=O)CCCCCCCCCc1ccccc1 | 0.0145
C[N+](C)(C)C[C@@H](CC(=O)[O-])NC(=O)CCCCCCCOCc1ccc(C(F)(F)F)c(F)c1 | 0.0323
C[N+](C)(C)C[C@@H](CC(=O)[O-])NC(=O)CCCCCCCCCCCc1ccccc1 | 0.0166
C[N+](C)(C)C[C@@H](CC(=O)[O-])NC(=O)CCCCCCCOCc1ccc(F)c(F)c1 | 0.0732
C[N+](C)(C)C[C@@H](CC(=O)[O-])NC(=O)CCCCCCCOCc1cccc(F)c1 | 0.0294

Shift focus to the following entry.
[ask] Supply IC50 value. Item: "C[N+](C)(C)C[C@@H](CC(=O)[O-])NC(=O)CCCCCCCOCc1cccc2ccccc12"
[reply] 0.041

----------
studyTarget: hL-CPT1 (Homo sapiens, UniProt P50416)
Sequence (P50416 whole entry): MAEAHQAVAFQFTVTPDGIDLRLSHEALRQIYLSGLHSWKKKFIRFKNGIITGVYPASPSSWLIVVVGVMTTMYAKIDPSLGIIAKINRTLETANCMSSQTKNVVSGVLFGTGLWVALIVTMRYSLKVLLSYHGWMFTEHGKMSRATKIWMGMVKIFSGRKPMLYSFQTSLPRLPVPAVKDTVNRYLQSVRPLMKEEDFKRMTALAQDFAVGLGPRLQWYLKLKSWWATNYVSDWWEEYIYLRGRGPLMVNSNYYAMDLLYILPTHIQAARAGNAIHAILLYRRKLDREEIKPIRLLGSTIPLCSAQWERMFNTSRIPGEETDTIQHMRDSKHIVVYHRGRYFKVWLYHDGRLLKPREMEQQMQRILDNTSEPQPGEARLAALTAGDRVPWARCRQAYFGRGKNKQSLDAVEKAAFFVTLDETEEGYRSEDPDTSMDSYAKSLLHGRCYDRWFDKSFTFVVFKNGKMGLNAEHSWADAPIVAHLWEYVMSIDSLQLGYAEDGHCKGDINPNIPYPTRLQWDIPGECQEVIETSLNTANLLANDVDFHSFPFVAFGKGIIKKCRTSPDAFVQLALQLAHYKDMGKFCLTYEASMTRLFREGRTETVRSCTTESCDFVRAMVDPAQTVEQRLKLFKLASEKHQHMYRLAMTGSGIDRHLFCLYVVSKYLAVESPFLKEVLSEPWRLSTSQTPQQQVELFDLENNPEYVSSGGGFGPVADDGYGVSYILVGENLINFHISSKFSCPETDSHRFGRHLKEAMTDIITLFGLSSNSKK
experiment: hL-CPT1 inhibition (spectrophotometric DTNB CPT activity assay)
conditionDescription: human liver CPT1 expressed in P. pastoris, cell extract; carnitine 500 μM, palmitoyl-CoA 80 μM, DTNB 300 μM
Listed below: pIC50 values for each entry.
Scale for pIC50: -log10 of concentration given in mol/L; no unit attached.

Below, each entry is followed by its recorded pIC50 result.
molecule | measurementType | testValue
C[N+](C)(C)C[C@@H](CC(=O)[O-])NC(=O)CCCCCCCOCc1cc(F)ccc1F | pIC50 | 5.25
C[N+](C)(C)C[C@@H](CC(=O)[O-])NC(=O)CCCCCCCCCc1cccc2ccccc12 | pIC50 | 5.40

[ask] Tell me its pIC50 on hL-CPT1 (Homo sapiens, UniProt P50416): "C[N+](C)(C)C[C@@H](CC(=O)[O-])NC(=O)CCCCCCCOCc1ccc(F)cc1F"
[reply] 5.95

[ask] Give pIC50 for "C[N+](C)(C)C[C@@H](CC(=O)[O-])NC(=O)CCCCCCCCc1ccccc1" tested on hL-CPT1 (Homo sapiens, UniProt P50416).
[reply] 5.62

[ask] Enter measured pIC50, system hL-CPT1 (Homo sapiens, UniProt P50416), for the molecule shown: "C[N+](C)(C)C[C@@H](CC(=O)[O-])NC(=O)CCCCCCCOCc1ccc(-c2ccccc2)cc1"
[reply] 5.96

----------
studyTarget: hL-CPT1 (Homo sapiens)
Construct: made in house; host or cells: Pichia pastoris strain X-33 (pGAPZB/pGAPZA), crude cell-free extract
experiment: hL-CPT1 inhibition (spectrophotometric DTNB CPT activity assay)
Format: biochemical
conditionDescription: human liver CPT1 expressed in P. pastoris, cell extract; carnitine 500 μM, palmitoyl-CoA 80 μM, DTNB 300 μM
Reported pIC50 values follow for various compounds
Remember the convention: pIC50 equals -log10 of concentration in molar.

Examples with answers:
molecule | testValue
C[N+](C)(C)C[C@@H](CC(=O)[O-])NC(=O)CCCCCCCOCc1ccc(C(F)(F)F)cc1 | 5.36
C[N+](C)(C)C[C@@H](CC(=O)[O-])NC(=O)CCCCCCCOCc1ccc(C(F)(F)F)c(F)c1 | 5.65
C[N+](C)(C)C[C@@H](CC(=O)[O-])NC(=O)CCCCCCCCCc1ccccc1 | 6.21
C[N+](C)(C)C[C@@H](CC(=O)[O-])NC(=O)CCCCCCCc1ccccc1 | 5.86
C[N+](C)(C)C[C@@H](CC(=O)[O-])NC(=O)CCCCCCCCCc1ccsc1 | 6.07
C[N+](C)(C)C[C@@H](CC(=O)[O-])NC(=O)CCCCCCCCCCc1ccccc1 | 5.22
C[N+](C)(C)C[C@@H](CC(=O)[O-])NC(=O)CCCCCCCOCc1cccc(F)c1 | 5.49

Consider the record given below.
[ask] Please give measured pIC50 of the following entry: "C[N+](C)(C)C[C@@H](CC(=O)[O-])NC(=O)CCCCCCCCCCCc1ccccc1"
[reply] 6.37
